- tgt: HIV-1 matrix MA1-131 (HIV-1, UniProt C1JB69 2-132)
- test_protocol: ITC
measured_attribute: Kd (nM)
Express the result in nM but write the number alone.

So for human tRNALys3, in vitro transcribed (structured_RNA, unmodified transcript) RNA: GCCCGGAUAGCUCAGUCGGUAGAGCAUCAGACUUUUAAUCUGAGGGUCCAGGGUUCAAGUCCCUGUUCGGGCGCCA , the logged Kd turned out to be 270
